// reported Binding affinity (RU) per item
target: acetylcholine receptor; assay: SPR, AchR immobilised on CM5 chip, peptide 10 uM

BINDER: KPDARR [6mer-2-773]
Binding affinity (RU): 11
//
BINDER: RMHKKR [6mer-2-793]
Binding affinity (RU): 29
//
BINDER: RYEHRR [6mer-2-753]
Binding affinity (RU): 18
//
BINDER: RDTPKK [6mer-2-798]
Binding affinity (RU): 17
//
BINDER: KNNWRR [6mer-2-742]
Binding affinity (RU): 32
//
BINDER: KECVRR [6mer-2-635]
Binding affinity (RU): 11
//
BINDER: KADPRR [6mer-2-656]
Binding affinity (RU): 11
//
BINDER: RTMHKR [6mer-2-703]
Binding affinity (RU): 14
//
BINDER: RHTGRR [6mer-2-620]
Binding affinity (RU): 33
//
BINDER: KTWAKR [6mer-2-701]
Binding affinity (RU): 23
//
BINDER: RDMIKR [6mer-2-727]
Binding affinity (RU): 11
//
BINDER: RKTEIR [6mer-1-1024]
Binding affinity (RU): 36
//
BINDER: KRIMHK [6mer-1-1023]
Binding affinity (RU): 39
//
BINDER: KMNAKK [6mer-2-735]
Binding affinity (RU): 21
//
BINDER: KDWHRK [6mer-2-704]
Binding affinity (RU): 20
//
BINDER: KFKKKR [6mer-2-640]
Binding affinity (RU): 21
//
BINDER: RYNDKK [6mer-2-755]
Binding affinity (RU): 18
//
BINDER: KKPWHK [6mer-1-1027]
Binding affinity (RU): 22
//
BINDER: RRHCWR [6mer-1-1028]
Binding affinity (RU): 36
//
BINDER: RCAGRR [6mer-2-790]
Binding affinity (RU): 23
//
BINDER: KPWPKR [6mer-2-782]
Binding affinity (RU): 18
//
BINDER: KKPPDK [6mer-1-957]
Binding affinity (RU): 43
//
BINDER: RPWHKK [6mer-2-700]
Binding affinity (RU): 15
//
BINDER: KTENKK [6mer-2-642]
Binding affinity (RU): 16
//
BINDER: KADGRR [6mer-2-754]
Binding affinity (RU): 12
//
BINDER: RTEPRK [6mer-2-761]
Binding affinity (RU): 29
//
BINDER: KRFEFK [6mer-1-932]
Binding affinity (RU): 38
//
BINDER: RRHTHK [6mer-1-972]
Binding affinity (RU): 43
//
BINDER: RIKMRR [6mer-2-611]
Binding affinity (RU): 22
//
BINDER: KKCPFR [6mer-1-960]
Binding affinity (RU): 34
//
BINDER: KKHHIR [6mer-1-1044]
Binding affinity (RU): 24
//
BINDER: RKPEDR [6mer-1-940]
Binding affinity (RU): 29
//
BINDER: RKPFRR [6mer-2-606]
Binding affinity (RU): 15
